ASSAY PROCEDURE: Log P by HPLC on reversed phase columns (EEC directive 79/831 Annex V.A8)
Type: physicochemical
CONDITIONS: Log P
REPORTED PROPERTY: chromatographic logP
Give bare numbers.

Enquiry: Recorded chromatographic logP of O=C1OC(c2sc(Br)c(Br)c2F)=NC12CC2 , please.
Return: 3.58

----------
ASSAY PROCEDURE: Log P by HPLC on reversed phase columns (EEC directive 79/831 Annex V.A8)
Type: physicochemical
CONDITIONS: method [a]: LC-UV, acidic range, 0.1% formic acid in water and acetonitrile as eluent
REPORTED PROPERTY: LogP

1) Cc1c(C2=NC3(CC3)C(=O)O2)sc(Br)c1Br ... 4.33^[a]

For each of the items listed, what is its LogP?
1. O=C1OC(c2sc(Cl)c(Cl)c2I)=NC12CC2
2. Cc1c(C2=NC3(CC3)C(=O)O2)sc(Cl)c1Cl
3. O=C1OC(c2sc(Cl)c(Cl)c2Cl)=NC12CC2

Return:
1: 4.23^[a]; 2: 4.30^[a]; 3: 4.01^[a]
